Tested on: ATP;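 also: ATP exposure 15 min at 22 °C before imaging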
Assay: switch fluorescence ratio, 500 uM ATP over buffer (Cy3 cluster intensity, sum of 5 cycles each) (fold (ratio)); higher = stronger signal-on switching upon ATP binding; sequences stand for … in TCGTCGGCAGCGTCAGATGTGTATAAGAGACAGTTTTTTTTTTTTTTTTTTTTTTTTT…TC
Details: aptamer strand: ATP DNA aptamer (quencher-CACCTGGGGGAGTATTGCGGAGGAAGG + anchor), 100 nM annealed; ATP concentration: 500 uM
List of switch fluorescence ratio values.
Just the number, please, no unit attached.

The examples below pair each entry with its known result.
>>> test_value("TTATGTGTTT")
1.01
>>> test_value("CAACGGACTA")
1.25
>>> test_value("ATTCATAGGT")
0.992
>>> test_value("TTTCGGAGTG")
1.02
>>> test_value("ACGTTATGCT")
1.17

Summary for this sequence, ATAAGGGGTA : switch fluorescence ratio is 0.98

Summary for this sequence, ATTAGAAGGT : switch fluorescence ratio is 0.994

Summary for this sequence, ACTTGAACGG : switch fluorescence ratio is 1.16

Summary for this sequence, TTGTAGGCGA : switch fluorescence ratio is 1.09
